# measuredTarget: Dihydroorotate dehydrogenase (quinone), mitochondrial (Plasmodium falciparum (isolate 3D7))
# testProtocol: inhibition of P. falciparum DHODH – biochemical, C-terminal His tag, absorbance 600 nm, primary screen (AID 1175);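 note: recombinant parasite enzyme with a five histidine tag at its C terminus; test concentration not given here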
# conditionLabel: PfDHODH enzyme, DCIP absorbance 600 nm; higher = more signal, called active from +8 up or from −8 down
composite z-score for assorted compounds
propertyLabel: composite z-score

{"compound": "C[C@]1(C(=O)NCC(F)(F)F)c2ccccc2C(=O)N(Cc2cc(F)cc(C(F)(F)F)c2)[C@H]1c1ccc(CO)cc1", "recordedResult": -0.191}
{"compound": "COC(=O)c1c(CC[C@@H](CO)NC(=O)Nc2ncn[nH]2)oc(C(=O)Cc2ccccc2)c1C(=O)OC", "recordedResult": 0.593}
{"compound": "O=C1OCCC=C[C@H]2OC34C=CCN(CCN5CCOCC5)C(=O)[C@H]3N(CCO)C(=O)[C@@H]4C12 (some centres not stated)", "recordedResult": -1.85}
{"compound": "O=P(NCC1(CC2(c3ccccc3)CO2)CC1)(c1ccccc1)c1ccccc1 (configuration not stated)", "recordedResult": -0.402}
{"compound": "COC(=O)[C@@]1(Cc2ccc(OC)cc2)[C@H]2c3cc(C(=O)N(C)C)n(CCSCCO)c3C[C@H]2CN1C(=O)c1ccccc1", "recordedResult": -0.669}
{"compound": "COCCOC(=O)N1C(=O)[C@@]2(c3cc(C#CCC(C(=O)OC)C(=O)OC)ccc31)[C@H](c1ccccc1OCCO)N1[C@H](c3ccccc3)[C@H](c3ccccc3)OC(=O)[C@H]1[C@@H]2C(=O)Nc1nc2ccccc2s1", "recordedResult": -1.19}
{"compound": "C=CCOC(=O)[C@@H]1[C@H]2C(=O)O[C@H](c3ccccc3)[C@H](c3ccccc3)N2[C@H](c2ccc(OCCOC(=O)[C@H]3C[C@H]4C(=O)N[C@@H](CC(C)C)C(=O)N4[C@H]3c3cccc(OCCO)c3)cc2)[C@@]12C(=O)Nc1ccc(I)cc12", "recordedResult": 1.64}
